# measuredOn: OAT1 (Homo sapiens)
# Sequence (Q4U2R8 whole entry): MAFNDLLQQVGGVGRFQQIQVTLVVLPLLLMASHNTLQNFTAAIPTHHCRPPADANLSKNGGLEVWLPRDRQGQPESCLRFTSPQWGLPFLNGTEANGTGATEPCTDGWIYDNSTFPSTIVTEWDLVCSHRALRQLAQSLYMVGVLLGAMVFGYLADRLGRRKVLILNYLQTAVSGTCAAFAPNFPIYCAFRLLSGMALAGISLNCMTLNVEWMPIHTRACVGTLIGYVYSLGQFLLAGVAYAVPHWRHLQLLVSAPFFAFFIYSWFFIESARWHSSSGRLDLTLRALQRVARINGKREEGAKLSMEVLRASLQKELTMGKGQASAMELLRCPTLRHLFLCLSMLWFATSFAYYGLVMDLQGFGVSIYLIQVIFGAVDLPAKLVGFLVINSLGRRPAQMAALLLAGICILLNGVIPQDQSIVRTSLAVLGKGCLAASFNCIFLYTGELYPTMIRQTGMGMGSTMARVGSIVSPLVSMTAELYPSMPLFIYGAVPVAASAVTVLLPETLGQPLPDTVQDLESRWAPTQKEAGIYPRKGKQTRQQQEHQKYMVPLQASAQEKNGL
# assayNotes: 6-CF uptake assay in HEK-OAT1 cells
pIC50: −log10 of the molar value.
readoutLabel: pIC50

Some solved entries appear below for comparison.
COc1ccccc1-c1cc(=O)c2c(OC)c(OC)ccc2o1 = 5.02
COc1ccc(O)cc1-c1cc(=O)c2ccccc2o1 [Compound 5, 2′-methoxy-5′-hydroxyflavone] = 4.57

[I] COc1ccc(OC)c(-c2cc(=O)c3ccccc3o2)c1
[II] O=c1cc(-c2cccc(O)c2)oc2ccccc12 [Compound 9, 3′-hydroxyflavone]
# returns the entry with the larger pIC50; inputs I and II State your choice using its label.
II

----------
# measuredOn: OAT3 (Homo sapiens, UniProt Q8TCC7)
# Sequence (Q8TCC7 whole entry): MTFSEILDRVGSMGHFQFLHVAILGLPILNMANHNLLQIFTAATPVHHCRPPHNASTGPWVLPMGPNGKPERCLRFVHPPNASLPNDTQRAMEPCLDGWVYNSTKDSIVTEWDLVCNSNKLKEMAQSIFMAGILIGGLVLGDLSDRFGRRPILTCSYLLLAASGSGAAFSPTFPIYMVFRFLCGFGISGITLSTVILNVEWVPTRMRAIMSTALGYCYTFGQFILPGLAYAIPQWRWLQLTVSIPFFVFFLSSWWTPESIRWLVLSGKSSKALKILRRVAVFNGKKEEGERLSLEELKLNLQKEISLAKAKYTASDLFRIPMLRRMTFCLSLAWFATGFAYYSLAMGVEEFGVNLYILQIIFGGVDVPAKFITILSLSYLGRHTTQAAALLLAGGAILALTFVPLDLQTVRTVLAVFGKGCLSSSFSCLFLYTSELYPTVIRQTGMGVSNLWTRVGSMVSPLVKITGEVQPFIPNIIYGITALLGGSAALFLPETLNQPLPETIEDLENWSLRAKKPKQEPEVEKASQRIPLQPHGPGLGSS
# assayNotes: 6-CF uptake assay in HEK-OAT3 cells
# setupConditions: human, HEK293 cells stably overexpressing OAT3 (HEK-OAT3), pH 7.2, probe 6-CF (4 µM)
readoutLabel: inhibition at 5 min, 50 µM

Give me measured inhibition at 5 min, 50 µM, please, for this molecule: COc1cccc(-c2cc(=O)c3ccccc3o2)c1
< 70%
